# Species: Oryctolagus cuniculus
# procedureSummary: Agonist activity at rabbit angiotensin […] receptor in aorta strips assessed as peptide concentration required to produce 50% maximal response under exclusion of long wavelength UV light
Non-standard residues stand in square brackets, D forms with d. Residues, ends and D or L forms follow the SMILES beside them. Phe(4-NO2) = N[C@@H](Cc1ccc([N+](=O)[O-])cc1)C(=O)O; Phe(3,5-I2,4-NH2) = Nc1c(I)cc(C[C@H](N)C(=O)O)cc1I; Sar = CNCC(=O)O
Consider the following compounds; for each one, report its pD2.

Which pD2 value belongs to CNCC(=O)N[C@@H](CCCNC(=N)N)C(=O)N[C@H](C(=O)N[C@@H](Cc1ccc([N+](=O)[O-])cc1)C(=O)N[C@H](C(=O)N[C@@H](Cc1cnc[nH]1)C(=O)N1CCC[C@H]1C(=O)N[C@@H](Cc1ccc([N+](=O)[O-])cc1)C(=O)O)C(C)C)C(C)C (H-[Sar]RV[Phe(4-NO2)]VHP[Phe(4-NO2)]-OH) ?
6.02

Please look up its pD2: CNCC(=O)N[C@@H](CCCNC(=N)N)C(=O)N[C@H](C(=O)N[C@@H](Cc1ccc(O)cc1)C(=O)N[C@H](C(=O)N[C@@H](Cc1cnc[nH]1)C(=O)N1CCC[C@H]1C(=O)N[C@@H](Cc1ccc(N=[N+]=[N-])cc1)C(=O)O)C(C)C)C(C)C
8.72

Fill in the blank: the reported pD2 of CNCC(=O)N[C@@H](CCCNC(=N)N)C(=O)N[C@H](C(=O)N[C@@H](Cc1cc(I)c(N)c(I)c1)C(=O)N[C@H](C(=O)N[C@@H](Cc1cnc[nH]1)C(=O)N1CCC[C@H]1C(=O)N[C@@H](Cc1ccccc1)C(=O)O)C(C)C)C(C)C (H-[Sar]RV[Phe(3,5-I2,4-NH2)]VHPF-OH) is ____.
7.68

Given CNCC(=O)N[C@@H](CCCNC(=N)N)C(=O)N[C@H](C(=O)N[C@@H](Cc1ccc(O)cc1)C(=O)N[C@H](C(=O)N[C@@H](Cc1cnc[nH]1)C(=O)N1CCC[C@H]1C(=O)N[C@@H](Cc1ccccc1)C(=O)O)C(C)C)C(C)C (H-[Sar]RVYVHPF-OH) , state its recorded pD2.
9.23
